Tested on: RPMI-8226
Assay: NCI tumour cell line growth inhibition, 48 h
Active and inactive are the calls of the source. No stated cut-off is given here; in the data, active = GI50 up to about 1.1 µM and inactive = higher.
Classes used: active, inactive

- COMPOUND: "Oc1ccccc1-n1nc2ccc3nonc3c2n1"
  ASSIGNED LABEL: "inactive"
- COMPOUND: "CCS/C(=N\\c1ccccc1)SC"
  ASSIGNED LABEL: "inactive"
- COMPOUND: "COC(=O)N/N=C/c1oc(-c2ccccc2)c(-c2ccccc2)c1[N+](=O)[O-]"
  ASSIGNED LABEL: "inactive"
- COMPOUND: "CC(=O)N[C@@H](Cc1ccc(O)cn1)C(=O)NCc1cccc(Cl)c1"
  ASSIGNED LABEL: "inactive"
- COMPOUND: "COc1c(-c2cccs2)oc2c(CC(=O)O)cccc2c1=O"
  ASSIGNED LABEL: "active"
- COMPOUND: "Nc1nc(Cl)c(N)c(NCC2(CO)CC(Cc3ccccc3)C2)n1 (stereo unspecified)"
  ASSIGNED LABEL: "inactive"

----------
System: UO-31
Assay: NCI tumour cell line growth inhibition, 48 h
Structures can show the parent of a compound that is named as a salt. The source made the active and inactive calls. No stated cut-off is given here; in the data, active = GI50 up to about 1.1 µM and inactive = higher.
PROPERTY MEASURED: GI50

- COMPOUND: "O=C(/N=C(/Nc1ccccc1)SCCS/C(=N\\C(=O)c1ccccc1)Nc1ccccc1)c1ccccc1"
  PROPERTY MEASURED: "GI50"
  READOUT VALUE: "32.9 µM (inactive)"
- COMPOUND: "C[N+](C)(C)CC1CCCCC1O (stereo not given)"
  PROPERTY MEASURED: "GI50"
  READOUT VALUE: "> 100 µM (inactive)"
- COMPOUND: "Cc1cc2c(CC(=O)O)n[nH]c2c(C(=O)O)c1C"
  PROPERTY MEASURED: "GI50"
  READOUT VALUE: "> 100 µM (inactive)"
- COMPOUND: "C1=N\\CCNCC/N=C/c2ccccc2OCc2cccc(n2)COc2ccccc2/1"
  PROPERTY MEASURED: "GI50"
  READOUT VALUE: "9.12 µM (inactive)"
- COMPOUND: "O=c1c(C(c2ccc3ccccc3c2)c2c(O)oc3ccccc3c2=O)c(O)oc2ccccc12"
  PROPERTY MEASURED: "GI50"
  READOUT VALUE: "17 µM (inactive)"
- COMPOUND: "CN(C)CCCC12CCCCC1=Nc1ccccc12 (stereo not given)"
  PROPERTY MEASURED: "GI50"
  READOUT VALUE: "> 100 µM (inactive)"
- COMPOUND: "Cc1ccc(S(=O)(=O)N2CCN(S(=O)(=O)c3ccc(C)cc3)CCN(S(=O)(=O)c3ccc(C)cc3)Cc3cc(Br)c(Br)cc3CN(S(=O)(=O)c3ccc(C)cc3)CC2)cc1"
  PROPERTY MEASURED: "GI50"
  READOUT VALUE: "> 100 µM (inactive)"
- COMPOUND: "Cn1c(=O)n(CC(Br)CBr)c(=O)n(CC(Br)CBr)c1=O (stereo not given)"
  PROPERTY MEASURED: "GI50"
  READOUT VALUE: "25.5 µM (inactive)"
- COMPOUND: "BrC(/C=N/Nc1nnc(-c2ccccc2)c(-c2ccccc2)n1)C(Br)c1ccccc1 (stereo not given)"
  PROPERTY MEASURED: "GI50"
  READOUT VALUE: "19.7 µM (inactive)"
- COMPOUND: "O=C(C#Cc1cnc(O)nc1O)c1ccccc1"
  PROPERTY MEASURED: "GI50"
  READOUT VALUE: "17.4 µM (inactive)"
- COMPOUND: "CC(=O)O[C@H]1CC[C@@H](OC(C)=O)[C@H]2[C@H](O)[C@H](O)[C@@H]1n1c(=O)n(-c3ccccc3)c(=O)n12"
  PROPERTY MEASURED: "GI50"
  READOUT VALUE: "> 100 µM (inactive)"
- COMPOUND: "COc1ccccc1NCc1nnc(CCCCCCCCc2nnc(CNc3ccccc3OC)o2)o1"
  PROPERTY MEASURED: "GI50"
  READOUT VALUE: "> 100 µM (inactive)"
- COMPOUND: "COC(=O)c1c(C#N)c(N)nc2c1CCC2"
  PROPERTY MEASURED: "GI50"
  READOUT VALUE: "69.7 µM (inactive)"
- COMPOUND: "CN(C)/N=C(/CC(O)(C(F)(F)F)C(F)(F)F)c1ccc([N+](=O)[O-])cc1"
  PROPERTY MEASURED: "GI50"
  READOUT VALUE: "98.6 µM (inactive)"
- COMPOUND: "NCCS [CYSTEAMINE HYDROCHLORIDE]"
  PROPERTY MEASURED: "GI50"
  READOUT VALUE: "> 100 µM (inactive)"
- COMPOUND: "COc1ccc(/C=C2\\CCC(CCN(C)C)(C3=CCCC3)C2=O)cc1Br (stereo not given)"
  PROPERTY MEASURED: "GI50"
  READOUT VALUE: "5.35 µM (inactive)"
- COMPOUND: "COC(=O)c1nc(C(=O)OC)c2c([nH]c3ccccc32)c1C(=O)OC"
  PROPERTY MEASURED: "GI50"
  READOUT VALUE: "21.3 µM (inactive)"
- COMPOUND: "CC(C)(C)C(=O)OCC1CCC[N+]2(C)CCCCC12 (stereo not given)"
  PROPERTY MEASURED: "GI50"
  READOUT VALUE: "> 100 µM (inactive)"
- COMPOUND: "C=C1C(=O)C[C@H]2C(=C)C(=O)O[C@@H]2C2C1CC[C@@]2(C)O (stereo not given in full)"
  PROPERTY MEASURED: "GI50"
  READOUT VALUE: "23.2 µM (inactive)"
- COMPOUND: "COC1=CC(C2c3cc4c(cc3[C@@H](Nc3ccc([N+](=O)[O-])cc3)C3COC(=O)[C@H]23)OCO4)=CC(=O)C1=O (stereo not given in full)"
  PROPERTY MEASURED: "GI50"
  READOUT VALUE: "6.24 µM (inactive)"

The reported measurements were obtained from ChEMBL document CHEMBL1201862.
